Please go through the items and note down their folding stability dG.
B1: r16_88_TrROS_Hall (parent)
chain: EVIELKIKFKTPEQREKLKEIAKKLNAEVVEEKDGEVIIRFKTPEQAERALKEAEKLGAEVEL

# Variants of: B1
# test.description: folding stability dG (cDNA display proteolysis); higher = more stable
# measurement.setup: PBS, room temperature
Give bare numbers, in kcal/mol.

Take a look at these entries with their results.
[
  {
    "mutation.id": "E62K",
    "value.units": "kcal/mol",
    "folding stability dG": 4.17
  },
  {
    "mutation.id": "P44I",
    "value.units": "kcal/mol",
    "folding stability dG": 4.34
  },
  {
    "mutation.id": "V37S",
    "value.units": "kcal/mol",
    "folding stability dG": 4.19
  },
  {
    "mutation.id": "L63V",
    "value.units": "kcal/mol",
    "folding stability dG": 4.25
  },
  {
    "mutation.id": "E48Y",
    "value.units": "kcal/mol",
    "folding stability dG": 4.67
  }
]

Parameters: items (list). Returns: folding stability dG for each item.
1. K10G
2. K42P
3. A50D
4. E60S
5. L18H
6. G35I

Output line:
4.21
3.79
2.77
4.28
3.49
4.51

Batch request: folding stability dG per item, same order as input.
1. K23D
2. G35H
3. I21P
4. K42C
5. E55I
6. A59D
7. R49F

Output line:
[4.09, 4.16, 1.81, 4.29, 4.46, 4.28, 4.76]

Value sought for every listed variant: folding stability dG.
1. K52F
2. E13S
3. I38C
4. A59P

Output line:
1: 4.62; 2: 4.66; 3: 4.3; 4: 4.55

These data points were gathered from the MegaScale stability set (Tsuboyama et al. 2023).
